# Subject of test: IgE-Tb / FcεRIα-Y131A-AF488 (Homo sapiens, UniProt P01854)
# Sequence (P01854 1-427 limits assumed, stated change not applied): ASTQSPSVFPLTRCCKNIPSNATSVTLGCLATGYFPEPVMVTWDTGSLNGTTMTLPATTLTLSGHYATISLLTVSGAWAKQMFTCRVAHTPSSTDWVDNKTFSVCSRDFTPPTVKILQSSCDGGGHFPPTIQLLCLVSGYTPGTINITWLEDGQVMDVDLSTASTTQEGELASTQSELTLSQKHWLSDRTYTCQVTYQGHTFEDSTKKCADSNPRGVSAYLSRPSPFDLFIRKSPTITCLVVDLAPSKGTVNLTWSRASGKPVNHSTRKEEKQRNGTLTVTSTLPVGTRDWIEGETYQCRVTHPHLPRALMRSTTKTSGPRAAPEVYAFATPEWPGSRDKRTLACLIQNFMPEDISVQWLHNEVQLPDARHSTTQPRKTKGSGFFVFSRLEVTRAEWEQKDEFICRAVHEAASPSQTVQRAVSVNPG
# Assay protocol: IgE-Tb / FcεRIα-Y131A-AF488 FRET assay (protocol for examples 1 to 233)
# Test settings: examples 1 to 233: 5 nM IgE-Tb, 25 nM FcεRIα-Y131A-AF488, incubated 2 hours at room temperature; read-out: Y131A FRET IC50 range
pIC50: −log10 of the molar value.
Measured property: pIC50

As a guide, the following entries are already answered.
- Compound: "C[C@@H]1CCc2sc(NC(=O)C3CC3)c(C(=O)NCC3CC3)c21 (single isomer, unassigned)"
  Subject of test: "IgE-Tb / FcεRIα-Y131A-AF488 (Homo sapiens, UniProt P01854)"
  pIC50: "5.00 to 6.00"
- Compound: "O=C(NCC1CC1)c1c(NC(=O)C2CC2)sc2c1CC(Nc1nnco1)CC2 (centres unmarked)"
  Subject of test: "IgE-Tb / FcεRIα-Y131A-AF488 (Homo sapiens, UniProt P01854)"
  pIC50: "> 6.00"
- Compound: "N#Cc1ncn([C@H]2CCc3sc(NC(=O)C4CC4)c(C(=O)NCC4CC4)c3C2)c1N"
  Subject of test: "IgE-Tb / FcεRIα-Y131A-AF488 (Homo sapiens, UniProt P01854)"
  pIC50: "> 6.00"
- Compound: "O=C(NCC1CC1)c1c(NC(=O)C2CC2)sc2c1CC(n1nncc1Nc1cccnc1)CC2 (centres unmarked)"
  Subject of test: "IgE-Tb / FcεRIα-Y131A-AF488 (Homo sapiens, UniProt P01854)"
  pIC50: "> 6.00"

Requested field: pIC50. Item: CCOc1c(NC2CCc3sc(NC(=O)C4CC4)c(S(=O)(=O)NCC4CC4)c3C2)c(=O)c1=O (centres unmarked)
> 6.00

Try this compound too: O=C(NCC1CC1)c1c(NC(=O)C2CC2)sc2c1C[C@@H](n1cnnc1NCC1CC1)CC2
> 6.00

Same lookup for CCNC(=NC#N)NC1CCc2sc(NC(=O)C3CC3)c(S(=O)(=O)NCC3CC3)c2C1 (centres unmarked) , please.
> 6.00

Again, but for O=C(NCC1CC1)c1c(NC(=O)C2CC2)sc2c1C[C@@H](n1cnnc1Nc1ccccn1)CC2
> 6.00

Next compound: CCCNS(=O)(=O)c1c(NC(=O)C2CC2)sc2c1CC(NC(=O)Nc1ccc(OC)cc1)CC2 (centres unmarked)
> 6.00
